Data origin: ChEMBL document CHEMBL4689842

Test system: HEK-293T
Test: Multiplex assay against HEK293T
Assay type: toxicity, cell-based
Details: human, 48 h, 10 µM, compound concentration 10 uM, replicate 2
OBSERVED_PROPERTY: Population Membrane Permeable-Phenotype (%)
Give the number; % is assumed, so skip it.

Ask: Fill in the blank: the reported Population Membrane Permeable-Phenotype (%) of "COc1cc(Nc2nccc(-c3cnn4nc(OC)ccc34)n2)cc(C(F)(F)F)c1" is ____.
Reply: 2

Ask: Fill in the blank: the reported Population Membrane Permeable-Phenotype (%) of "C#Cc1cccc(Nc2ncnc3cc(OCCOC)c(OCCOC)cc23)c1" is ____.
Reply: 5

Ask: Fill in the blank: the reported Population Membrane Permeable-Phenotype (%) of "CC(C)c1noc(N2CCC(COc3ccc(-c4ccc(S(C)(=O)=O)cc4)nc3)CC2)n1" is ____.
Reply: 12

====

Measured Population Pyknosed Nuclei (%), listed per entry.
System: HEK-293T
Test: Multiplex assay against HEK293T
Format: toxicity, cell-based
Settings: human, 24 h, 1 µM, compound concentration 1 uM, replicate 2
Give the number; % is assumed, so skip it.

Consider the worked cases shown below.
> print(dat)
                                   molecule  quantitative.result
1  CC(C)c1noc(N2CCC(COc3ccc(-c4ccc(S(C)(=O)=O)cc4)nc3)CC2)n1                   31
2  CCc1ccc(OCc2ccccc2C(=O)Nc2ccc3nc(C)cc(N)c3c2)cc1.Cl                   79
3  CN1CCN(Cc2ccc(Nc3ncc(Cl)c(Nc4ccccc4S(=O)(=O)N(C)C)n3)cc2)CC1                   11
4  C=CC(=O)Nc1ccc2[nH]c(=O)n(C3CCN(Cc4ccc(-c5nc6cc[nH]c(=O)c6cc5-c5ccccc5)cc4)CC3)c2c1                    3
5  Cc1c[nH]c2nccc(Oc3c(F)cc(Nc4cc(Cl)nc(N)n4)cc3F)c12                   19
6  CCc1nn(CCCN2CCN(c3cccc(Cl)c3)CC2)c(=O)n1CCOc1ccccc1.Cl [NEFAZODONE HYDROCHLORIDE]                   47
7  COC(=O)C1=C(C)NC(C)=C(C(=O)OCCCN2CCC(c3ccccc3)(c3ccccc3)CC2)[C@H]1c1cccc([N+](=O)[O-])c1                   49
8  O=C(c1cc2c(cc1F)OC(c1ccc(F)cc1)(c1ccc(Cl)cc1Cl)O2)N1CCOCC1 (stereo not given)                   35

Please look at the following molecule next.
Ask: Fill in the blank: the reported Population Pyknosed Nuclei (%) of Cc1ccccc1C(c1ccccc1C)N1C2CCC1CC(O)(c1ccccc1)C2 (stereo not given) is ____.
Reply: 32

====

Measured Population Normal (%), listed per entry.
Test system: Fibroblast
Assay: Multiplex assay against human fibroblast
Assay type: toxicity, cell-based
Conditions: 12 h, 10 µM, compound concentration 10 uM, replicate 2
Please don't drop the unit; write it after the number.

> print(dat)
                                   molecule  result
1  COc1ccccc1CN[C@H]1C2CCN(CC2)[C@H]1C(c1ccccc1)c1ccccc1     96%

Ask: Notebook: pull reported Population Normal (%) for Fibroblast, entry "O=c1[nH]c2ccccc2n1C1CCN(Cc2ccc(-c3[nH]c4cc5ncnc5cc4nc3-c3ccccc3)cc2)CC1"
Reply: 51%

Ask: Notebook: pull reported Population Normal (%) for Fibroblast, entry Cc1ccccc1C(c1ccccc1C)N1C2CCC1CC(O)(c1ccccc1)C2 (stereo not drawn)
Reply: 86%

====

Measured Population Hoechst High Intensity Objects (%), listed per entry.
Test system: HEK-293T
Experiment: Multiplex assay against HEK293T
Format: toxicity, cell-based
Conditions: human, 12 h, 1 µM, compound concentration 1 uM, replicate 2
Give the number; % is assumed, so skip it.

> print(dat)
                                   molecule  quantitative.result
1  CC(C)c1noc(N2CCC(COc3ccc(-c4ccc(S(C)(=O)=O)cc4)nc3)CC2)n1 [GSK-1292263]                    1

Ask: Fill in the blank: the reported Population Hoechst High Intensity Objects (%) of CC(C)(C)NC[C@H](O)COc1nsnc1N1CCOCC1 [TIMOLOL] is ____.
Reply: 3

Ask: Fill in the blank: the reported Population Hoechst High Intensity Objects (%) of CNC(=O)Nc1ccc2c(c1)[C@@]1(CC2)OC(=O)N(CC(=O)N(Cc2ccc(F)cc2)[C@@H](C)C(F)(F)F)C1=O [A-486] is ____.
Reply: 2

Ask: Fill in the blank: the reported Population Hoechst High Intensity Objects (%) of "CC(C)OC(=O)N1CCC(Oc2ncnc3c2cnn3-c2ccc(S(C)(=O)=O)cc2F)CC1" is ____.
Reply: 4

====

System: U2OS
Test: Multiplex assay against U2OS
Assay type: toxicity, cell-based
Conditions: human, 24 h, 10 µM, compound concentration 10 uM, replicate 2
Kindly return 1 if reported Population Pyknosed Nuclei (%) is no lower than 20%; return -1 if it is lower.

Worked examples follow.
> print(dat)
                                   compound  measured.on  class.label
1  Cc1c[nH]c2nccc(Oc3c(F)cc(Nc4cc(Cl)nc(N)n4)cc3F)c12         U2OS            1
2  CC(C)CC(=O)Nc1[nH]nc2c1CN(C(=O)C1CCN(C)CC1)C2(C)C         U2OS           -1
3  Cc1ccc2c(c1)c1c(n2CCc2ccc(C)nc2)CCN(C)C1 [LATREPIRDINE]         U2OS            1
4  CCc1ccc(OCc2ccccc2C(=O)Nc2ccc3nc(C)cc(N)c3c2)cc1.Cl         U2OS            1

Ask: Entry "COc1ccccc1CN[C@H]1C2CCN(CC2)[C@H]1C(c1ccccc1)c1ccccc1" : is its Population Pyknosed Nuclei (%) no less than 20%?
Reply: -1

Ask: Entry "C[C@]12CC[C@@H]3c4ccc(O)cc4CC[C@H]3[C@@H]1CC[C@@H]2O" : is its Population Pyknosed Nuclei (%) no less than 20%?
Reply: -1

Ask: Entry "COC(=O)C1=C(C)NC(C)=C(C(=O)OCCCN2CCC(c3ccccc3)(c3ccccc3)CC2)[C@H]1c1cccc([N+](=O)[O-])c1" : is its Population Pyknosed Nuclei (%) no less than 20%?
Reply: 1

Ask: Entry "Cc1nc(N2CC[C@H](O)C2)ncc1-c1cc(C(F)(F)F)cc2[nH]ncc12" : is its Population Pyknosed Nuclei (%) no less than 20%?
Reply: -1

====

Test system: U2OS
Experiment: Multiplex assay against U2OS
Assay type: toxicity, cell-based
Details: human, 12 h, 1 µM, compound concentration 1 uM, replicate 1
Measured Population Normal (%), listed per entry.
Give the number; % is assumed, so skip it.

Consider the worked cases shown below.
> print(dat)
                                   compound      observed.property  quantitative.result
1  CN1CCN(Cc2cc(NC(=O)c3ccc4c(c3)CN(c3ccccc3)CC4)cc(C(F)(F)F)c2)CC1  Population Normal (%)                   97
2  CC(C)c1noc(N2CCC(COc3ccc(-c4ccc(S(C)(=O)=O)cc4)nc3)CC2)n1  Population Normal (%)                   82
3  Cc1cc(C)c(-n2ccn3nc(-c4cccnc4)cc23)cc1NC(=O)c1cc(C#N)cc(S(F)(F)(F)(F)F)c1  Population Normal (%)                   95
4  O=c1cc(N2CCOCC2)oc2c(-c3cccc4c3sc3ccccc34)cccc12  Population Normal (%)                   92
5  Cl.O=C(O)c1cc(-c2ccc(C3CCNCC3)cc2)c2ccc(-c3ccc(C(F)(F)F)cc3)cc2c1  Population Normal (%)                   92

Ask: Fill in the blank: the reported Population Normal (%) of "C=CC(=O)Nc1ccc2[nH]c(=O)n(C3CCN(Cc4ccc(-c5nc6cc[nH]c(=O)c6cc5-c5ccccc5)cc4)CC3)c2c1" is ____.
Reply: 96

Ask: Fill in the blank: the reported Population Normal (%) of "O=c1[nH]c2ccccc2n1C1CCN(Cc2ccc(-c3[nH]c4cc5ncnc5cc4nc3-c3ccccc3)cc2)CC1" is ____.
Reply: 94

Ask: Fill in the blank: the reported Population Normal (%) of O=C(c1cc2c(cc1F)OC(c1ccc(F)cc1)(c1ccc(Cl)cc1Cl)O2)N1CCOCC1 (centres undefined) is ____.
Reply: 89

Ask: Fill in the blank: the reported Population Normal (%) of Cc1ccc2c(c1)c1c(n2CCc2ccc(C)nc2)CCN(C)C1 [LATREPIRDINE] is ____.
Reply: 92

Ask: Fill in the blank: the reported Population Normal (%) of "CCCSc1nc(N[C@@H]2C[C@H]2c2ccc(F)c(F)c2)c2nnn([C@@H]3C[C@H](OCCO)[C@@H](O)[C@H]3O)c2n1" is ____.
Reply: 93

Ask: Fill in the blank: the reported Population Normal (%) of "COc1cc(Nc2nccc(-c3cnn4nc(OC)ccc34)n2)cc(C(F)(F)F)c1" is ____.
Reply: 92

Ask: Fill in the blank: the reported Population Normal (%) of "CC(C)OC(=O)N1CCC(Oc2ncnc3c2cnn3-c2ccc(S(C)(=O)=O)cc2F)CC1" is ____.
Reply: 93

Ask: Fill in the blank: the reported Population Normal (%) of "Cc1ccc(C)c(Oc2ccncc2C(=O)N2CCN(C3CC3)c3ccccc32)c1" is ____.
Reply: 92

Ask: Fill in the blank: the reported Population Normal (%) of "COc1ccc(-c2ccc3ncc4c(c3c2)n(-c2ccc(N3CCNCC3)c(C(F)(F)F)c2)c(=O)n4C)cn1.O=C(O)/C=C\C(=O)O" is ____.
Reply: 85

Ask: Fill in the blank: the reported Population Normal (%) of "COc1ccccc1CN[C@H]1C2CCN(CC2)[C@H]1C(c1ccccc1)c1ccccc1" is ____.
Reply: 88

Ask: Fill in the blank: the reported Population Normal (%) of "C=CC(=O)Nc1cccc(Oc2nc(Nc3ccc(N4CCN(C)CC4)cc3OC)ncc2Cl)c1" is ____.
Reply: 92

Ask: Fill in the blank: the reported Population Normal (%) of "CC(C)NC(=O)N1CC[C@H](NC2=Nc3cc(F)ccc3N(CC(F)F)c3ccc(Cl)cc32)C1" is ____.
Reply: 92

Ask: Fill in the blank: the reported Population Normal (%) of CCc1nn(CCCN2CCN(c3cccc(Cl)c3)CC2)c(=O)n1CCOc1ccccc1.Cl [NEFAZODONE HYDROCHLORIDE] is ____.
Reply: 90

Ask: Fill in the blank: the reported Population Normal (%) of Cc1ccccc1C(c1ccccc1C)N1C2CCC1CC(O)(c1ccccc1)C2 (centres undefined) is ____.
Reply: 89

Ask: Fill in the blank: the reported Population Normal (%) of CC1=C(C(=O)Nc2cc3cn[nH]c3cc2F)C(c2ccc(C(F)(F)F)cc2)CC(=O)N1 (centres undefined) is ____.
Reply: 95

Ask: Fill in the blank: the reported Population Normal (%) of Cc1cccc(CN2CCN(C(c3ccccc3)c3ccc(Cl)cc3)CC2)c1.Cl.Cl (centres undefined) is ____.
Reply: 93
